molecular target: T1, cTnI quality control product recombinant protein (human, UniProt P19429 2-210, limits assumed); assay: AMC sensor, antibody immobilised, cTnI in solution
T1 construct: treated as the same molecule; also called cTnI antigen; cardiac troponin I
T1 sequence (P19429 2-210 limits assumed): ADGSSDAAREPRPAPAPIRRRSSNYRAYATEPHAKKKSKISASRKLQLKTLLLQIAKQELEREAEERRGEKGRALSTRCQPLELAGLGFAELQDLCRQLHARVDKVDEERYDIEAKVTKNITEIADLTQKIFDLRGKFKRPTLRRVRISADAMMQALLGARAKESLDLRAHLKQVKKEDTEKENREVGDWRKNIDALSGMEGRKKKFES
Can you tell me pKd for the items I'm about to list?
As a rule, pKd stands for the negative log10 of the concentration, concentration in M.

QUERY: Query (binder): Mutation 1-44 (antibody, V domains shown, Built as m8) VH: EVQLQQSGPELVKPGASVKMSCKASGYTFTIYVIHWVKQKPGQGLEWIGYIQPYIDGTKYNEKFKGKATLTVDKSSSTAFMELSSLTSEDSAVYYCARSGYGGYGLAWLAYWGQGTLVTVSA VL: QAVVIQESALTTSPGETVTLTCRSSTGAATTSNYANWVQEKPDHLFTGLIGGSNNRAPGVPARFSGSLIGDKAALTITGAQTEDEAIYFCALVYSNNWVFGGGTKLTVLG ; field requested: pKd
RESULT: 8.18

QUERY: Query (binder): Mutation 1-2 (antibody, V domains shown, Built as m8) VH: EVQLQQSGPELVKPGASVKMSCKASGYTFTIYVIHWVKQKPGQGLEWIGYIQPYIDGTKYNEKFKGKATLTVDKSSSTAFMELSSLTSEDSAVYYCARSGYGGYGLAWLAYWGQGTLVTVSA VL: QAVVIQESALTTSPGETVTLTCRSSTGAVTTSQYANWVQEKPDHLFTGLIGGSNNRAPGVPARFSGSLIGDKAALTITGAQTEDEAIYFCALVYSNNWVFGGGTKLTVLG ; field requested: pKd
RESULT: 8.12

QUERY: Query (binder): Mutation 1-45 (antibody, V domains shown, Built as m8) VH: EVQLQQSGPELVKPGASVKMSCKASGYTFTLYVVHWVKQKPGQGLEWIGYIQPYLDGTKYNEKFKGKATLTVDKSSSTAFMELSSLTSEDSAVYYCARSGYGQYGLAWLAYWGQGTLVTVSA VL: QAVVIQESALTTSPGETVTLTCRSSTGAVTTSQYANWVQEKPDHLFTGLIGGSQNRAPGVPARFSGSLIGDKAALTITGAQTEDEAIYFCALVYSNQWVFGGGTKLTVLG ; field requested: pKd
RESULT: 8.13
